- tested.on: UniProt:O14842
- Sequence (O14842 whole entry): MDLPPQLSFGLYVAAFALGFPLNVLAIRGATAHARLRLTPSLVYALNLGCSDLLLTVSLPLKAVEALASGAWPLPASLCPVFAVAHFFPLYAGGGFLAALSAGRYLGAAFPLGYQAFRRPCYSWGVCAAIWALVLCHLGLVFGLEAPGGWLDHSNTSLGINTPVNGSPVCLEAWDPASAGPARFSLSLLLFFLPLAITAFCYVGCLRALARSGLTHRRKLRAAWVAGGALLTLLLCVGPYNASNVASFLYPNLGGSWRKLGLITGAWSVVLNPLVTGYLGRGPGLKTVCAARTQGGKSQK
- protocol.details: Positive allosteric modulation of human GPR40 expressed in HEK293 cells assessed as IP1 accumulation measured after 60 mins by HTRF assay relative to DMSO control
- Format: functional, cell-based
- Parameters: concentration or dose not given beside the values
readout.kind: Activity (%)

COc1ccc(F)c(-c2ccc(C3CCc4ccc([C@@H](CC(=O)O)C5CC5)cc4O3)nc2)c1 (mixture of isomers); 538
COc1ccc(F)c(-c2ccc(C3CCc4ccc([C@H](C5CC5)[C@@H](C)C(=O)O)cc4O3)nc2)c1 (stereo in doubt; 31); 330
COc1ccc(F)c(-c2ccc(COc3cccc([C@@H](CC(=O)O)C4CC4)c3)cc2C2=CCCC2(C)C)c1; 465
COc1ccc(F)c(-c2ccc(C3CCc4ccc([C@@H](CC(=O)O)C5CC5)cc4O3)cc2C#N)c1 (mixture of isomers); 391
COc1ccc(F)c(-c2ccc([C@H]3CCc4ccc([C@H](C5CC5)[C@H](C)C(=O)O)cc4O3)cc2)c1; 420

P: COc1ccc(F)c(-c2ccc(C3CCc4ccc([C@@H](CC(=O)O)C5CC5)cc4O3)cc2OC(F)(F)F)c1 (mixture of isomers)
Q: COc1ccc(F)c(-c2ccc(C3CCc4ccc([C@@H](CC(=O)O)C5CC5)cc4O3)cc2C(OC)C2CC2)c1 (stereo in doubt; 18)
Query block: // pick larger Activity from pair: P vs Q Refer to your chosen item by its label in the answer.
Result block: P
(P: 408%, Q: 284%)
